// data source = patent US12209102B2

molecular target: K-Ras G12V (Homo sapiens, UniProt P01116, G12V); assay: HTRF resonance energy transfer assay, K-Ras G12V / SOS1 interaction; settings: HTRF assay of Example 5; read-out: IC50 against K-Ras G12V
Sequence (P01116 1-188 isoform P01116-2 G12V): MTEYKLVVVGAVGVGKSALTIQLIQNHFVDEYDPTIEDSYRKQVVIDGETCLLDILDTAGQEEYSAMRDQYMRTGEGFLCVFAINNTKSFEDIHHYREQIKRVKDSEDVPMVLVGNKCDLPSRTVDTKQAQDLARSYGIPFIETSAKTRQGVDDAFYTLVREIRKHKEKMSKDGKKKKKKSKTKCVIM

compound	IC50
C[C@@H]1CCOc2c(Cl)c(-c3ccc(F)c4sc(N)c(C#N)c34)c(F)c3nc(OC[C@@]45CCCN4C[C@H](F)C5)nc(c23)N1	< 100 nM
N#Cc1c(N)sc2c(F)ccc(-c3c(Cl)c4c5c(nc(OC[C@@]67CCCN6C[C@H](F)C7)nc5c3F)N(CC(F)F)[C@@H](CN)CO4)c12	< 100 nM
CN(C=O)C1CC(N2CCOc3c(Cl)c(-c4ccc(F)c5sc(N)c(C#N)c45)c(F)c4nc(OC[C@@]56CCCN5C[C@H](F)C6)nc2c34)C1 (stereo partly drawn)	< 100 nM
N#Cc1c(N)sc2c(F)ccc(-c3c(Cl)c4c5c(nc(OC[C@@]67CCCN6C[C@H](F)C7)nc5c3F)N(C3CCCC(O)C3)CCO4)c12 (stereo partly drawn)	< 100 nM
C=C[C@H]1COc2c(Cl)c(-c3ccc(F)c4sc(N)c(C#N)c34)c(F)c3nc(OC[C@@]45CCCN4C[C@H](F)C5)nc(c23)N1CCOC (single isomer, unassigned)	< 100 nM
C[C@H](O)[C@H]1[C@@H](C)Oc2c(Cl)c(-c3ccc(F)c4sc(N)c(C#N)c34)c(F)c3nc(OC[C@@]45CCCN4C[C@H](F)C5)nc(c23)N1CC(F)F	< 100 nM

###

biological target: K-Ras G12D (Homo sapiens, UniProt P01116, G12D); test: HTRF resonance energy transfer assay, K-Ras G12D / SOS1 interaction; details: HTRF assay of Example 5; read-out: IC50 against K-Ras G12D
Sequence (P01116 1-188 isoform P01116-2 G12D): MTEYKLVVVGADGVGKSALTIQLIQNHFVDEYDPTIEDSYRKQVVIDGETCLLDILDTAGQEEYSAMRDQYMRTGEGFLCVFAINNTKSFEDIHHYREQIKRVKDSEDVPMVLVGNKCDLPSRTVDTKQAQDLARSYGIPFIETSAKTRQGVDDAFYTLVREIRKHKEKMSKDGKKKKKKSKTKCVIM
experimental_endpoint: IC50

compound	experimental_target	experimental_endpoint	assay_value
C#C[C@H]1COc2c(Cl)c(-c3ccc(F)c4sc(N)c(C#N)c34)c(F)c3nc(OC[C@@]45CCCN4C[C@H](F)C5)nc(c23)N1CC(F)F	K-Ras G12D (Homo sapiens, UniProt P01116, G12D)	IC50	< 100 nM
Cn1nc(N)cc1CN1CCOc2c(Cl)c(-c3ccc(F)c4sc(N)c(C#N)c34)c(F)c3nc(OC[C@@]45CCCN4C[C@H](F)C5)nc1c23	K-Ras G12D (Homo sapiens, UniProt P01116, G12D)	IC50	< 100 nM
CN1c2nc(OC[C@@]34CCCN3C[C@H](F)C4)nc3c(F)c(-c4ccc(F)c5sc(N)c(C#N)c45)c(Cl)c(c23)OCC1CO (stereo partly drawn)	K-Ras G12D (Homo sapiens, UniProt P01116, G12D)	IC50	< 100 nM

###

Item-by-item account of IC50
test system: SW620 cells; assay: Ras cellular assay, growth of cells with K-Ras G12V mutation (CellTiter-Glo); type: cell-based; conditions: Homo sapiens, SW-620; cell growth, Example 9, G12V mutation; read-out: IC50 against SW620 cells

compound	IC50
Cn1cc(N2CCOc3c(Cl)c(-c4ccc(F)c5sc(N)c(C#N)c45)c(F)c4nc(OC[C@@]56CCCN5C[C@H](F)C6)nc2c34)cn1	< 5 µM
C[C@H]1CN(CCN(C)C)c2nc(OC[C@@]34CCCN3C[C@H](F)C4)nc3c(F)c(-c4ccc(F)c5sc(N)c(C#N)c45)c(Cl)c(c23)O1	< 5 µM
CC1Oc2c(Cl)c(-c3ccc(F)c4sc(N)c(C#N)c34)c(F)c3nc(OC[C@@]45CCCN4C[C@H](F)C5)nc(c23)N(CC(F)F)C1C(C)(C)O (some centres unmarked)	< 5 µM
N#Cc1c(N)sc2c(F)ccc(-c3c(Cl)c4c5c(nc(OC[C@@]67CCCN6C[C@H](F)C7)nc5c3F)N(C3CCC(NC(=O)C(F)F)C3)CCO4)c12 (some centres unmarked)	< 5 µM
N#Cc1c(N)sc2c(F)ccc(-c3c(Cl)c4c5c(nc(OC[C@@]67CCCN6C[C@H](F)C7)nc5c3F)N(CCC(F)F)CCCO4)c12	< 5 µM
Cn1ncc(C#N)c1CN1CCOc2c(Cl)c(-c3ccc(F)c4sc(N)c(C#N)c34)c(F)c3nc(OC[C@@]45CCCN4C[C@H](F)C5)nc1c23	< 5 µM
N#Cc1c(N)sc2c(F)ccc(-c3c(Cl)c4c5c(nc(OC[C@@]67CCCN6C[C@H](F)C7)nc5c3F)N(C3COCC3O)CCO4)c12 (some centres unmarked)	< 5 µM
N#Cc1c(N)sc2c(F)ccc(-c3c(Cl)c4c5c(nc(OC[C@@]67CCCN6C[C@H](F)C7)nc5c3F)N(C3CCN(C(=O)C(F)Cl)C3)CCO4)c12 (some centres unmarked)	< 5 µM
N#Cc1c(N)sc2c(F)ccc(-c3c(Cl)c4c5c(nc(OC[C@@]67CCCN6C[C@H](F)C7)nc5c3F)N([C@@H]3CCN(C(=O)C(F)F)C3)CCO4)c12	< 5 µM
CS(=O)(=O)N1CCC(N2CCOc3c(Cl)c(-c4ccc(F)c5sc(N)c(C#N)c45)c(F)c4nc(OC[C@@]56CCCN5C[C@H](F)C6)nc2c34)C1 (some centres unmarked)	< 5 µM
N#Cc1c(N)sc2c(F)ccc(-c3c(Cl)c4c5c(nc(OC[C@@]67CCCN6C[C@H](F)C7)nc5c3F)N(C3CCn5nccc5C3)CCO4)c12 (some centres unmarked)	< 5 µM
